# assayed target: S-layer protein EA1 (Bacillus anthracis Sterne, UniProt P94217)
# test name: SPR; […] (5 µg/ml in 10 mM sodium acetate pH 4.0); […], dissociation 10 min; […]
# run parameters: both partners purified
Parameter pKd: see the listing below.
In simple prose, pKd is minus the logarithm base ten of a concentration in moles per litre.

binder="sdAb A1 (VHH, source: E. coli Rosetta, periplasmic (pECAN45), purified (IMAC, Superdex 75)) VHH: DVQLQASGGGLVQAGGSLELSCVVVGESIIDYQMAWFRQMVGREREFVAAITGDSHYSDYSASASGRFTISRDNAKKTVSLQMNHLKPEDTALYYCAARKGFGINRLSTAFDYWGHGTQVTVSS" measured_result=9.52
binder="sdAb G10 (VHH, source: E. coli Rosetta, periplasmic (pECAN45), purified (IMAC, Superdex 75)) VHH: DVQLQASGGGLVQPGGSLKLSCVASGSTFSPDMMRWYRQAPGKQRDLVAWISTSGFTMYADSVKGRFTISRDNAKNTVYLQMNSLKPEDAAVYYCNANRFSGPDYWGQGMQVSVSS" measured_result=8.69
binder="sdAb B12 (VHH, source: E. coli Rosetta, periplasmic (pECAN45), purified (IMAC, Superdex 75)) VHH: DVQLQASGGGLAQPGGSLRLSCVASGSVSRLSRMGWYRQAPGKQRELVAYIWHDGDNSYMDSVKGRFTISRDNARDTAYLQMNSLKPEDTAVYYCNYYRVGSGDSWGQGIQVIVSS" measured_result=8.21
binder="sdAb C7 (VHH, source: E. coli Rosetta, periplasmic (pECAN45), purified (IMAC, Superdex 75)) VHH: EVQLQASGGGLVQPGGSLNLSCAASGEILSFNSMGWYRQAPGKQCELVAVILSGFSPNYADSVKGRFTISRDGAKNTVFLRMNRLKPEDTADYYCAARFYGAIRDEQSVNYWGQGTRVTVSS" measured_result=8.80

Proceed to the following item.
For sdAb B2 (VHH, source: E. coli Rosetta, periplasmic (pECAN45), purified (IMAC, Superdex 75)) VHH: EVQLQASGGGLVQAGGSLRLSCAASGHINIHYAMGWFRRAPGKEREFVAAVTWSGASTYYADSVKGRFTISRDNGGNTMFLQLDSLKPEDTATYYCAAQGALGRLTSASGYDYWGQGTQVTVSS , what is its reported pKd? 8.21

Entry source: paper PMC3295763
